Assayed System: Rat NHE3 (Rattus norvegicus)
Construct: expressed in transfected cells; host or cells: Opossum kidney (OK) cells (ATCC), electroporation
Assay Details: Cell-based NHE3 activity under prompt conditions (OK cells, BCECF pH recovery), rat NHE3
Conditions Used: prompt conditions
Entry flag: yes if Prompt Rat NHE3 pIC50 reaches 7; no if it does not.

Previously resolved entries follow.
>>> label_value("CN1Cc2c(Cl)cc(Cl)cc2[C@H](c2cccc(S(=O)(=O)NCCOCCOCCNC(=O)NCCN(CCNC(=O)NCCOCCOCCNS(=O)(=O)c3cccc([C@@H]4CN(C)Cc5c(Cl)cc(Cl)cc54)c3)C(=O)NCCOCCOCCN)c2)C1 [compound 108]")
"yes"
>>> label_value("CN1Cc2c(Cl)cc(Cl)cc2[C@H](c2cccc(S(=O)(=O)NCCOCCOCCOCCNC(=O)NCCN3CCN(c4nc(N5CCN(CCNC(=O)NCCOCCOCCOCCNS(=O)(=O)c6cccc([C@@H]7CN(C)Cc8c(Cl)cc(Cl)cc87)c6)CC5)nc(N5CCN(CCNC(=O)NCCOCCOCCOCCNS(=O)(=O)c6cccc([C@@H]7CN(C)Cc8c(Cl)cc(Cl)cc87)c6)CC5)n4)CC3)c2)C1 [compound 70]")
"no"
>>> label_value("CN(CC(=O)NCCOCCOCCNC(=O)NCCOCCOCCN1CCN(c2cccc(-c3nc(NC(=N)N)nc4ccc(Cl)cc34)c2)CC1)CC(=O)NCCOCCOCCNC(=O)NCCOCCOCCN1CCN(c2cccc(-c3nc(NC(=N)N)nc4ccc(Cl)cc34)c2)CC1 [compound 33]")
"yes"

Would you kindly look at the next entry?
INPUT: Please tell me: is the compound CN1Cc2c(Cl)cc(Cl)cc2[C@H](c2cccc(S(=O)(=O)NCCOCCOCCNC(=O)CCN(CCC(=O)NCCOCCOCCNS(=O)(=O)c3cccc([C@@H]4CN(C)Cc5c(Cl)cc(Cl)cc54)c3)CCC(=O)NCCOCCOCCNS(=O)(=O)c3cccc([C@@H]4CN(C)Cc5c(Cl)cc(Cl)cc54)c3)c2)C1 [compound 80] at or over 7 in terms of Prompt Rat NHE3 pIC50?
OUTPUT: no

====

System: phosphorus and calcium levels in the urine of rats
Assay Details: Urinary excretion of phosphate and calcium in rats (16 h overnight urine)
Type: in vivo, rat
Conditions Used: rats, oral gavage, dose 10 mg/kg, 16 h post-dose
Measured Property: Urine P % of control

Example entries begin here.
>>> measured_value("O=C(NCCCCNC(=O)NCCOCCOCCNS(=O)(=O)c1ccc(O[C@H]2c3cc(F)ccc3C[C@@H]2N2CCCCC2)cc1)NCCOCCOCCNS(=O)(=O)c1ccc(O[C@H]2c3cc(F)ccc3C[C@@H]2N2CCCCC2)cc1 [compound 140]")
"121%"
>>> measured_value("N=C(N)Nc1nc(-c2ccc(OCCOCCOCCOCCNC(=O)NCCOCCOCCNC(=O)NCCCCNC(=O)NCCOCCOCCNC(=O)NCCOCCOCCOCCOc3ccc(-c4nc(NC(=N)N)nc5ccc(Cl)cc45)cc3)cc2)c2cc(Cl)ccc2n1 [compound 36]")
"86%"
>>> measured_value("N=C(N)Nc1nc(-c2ccc(OCCOCCOCCOCCNC(=O)NCCOCCOCCNC(=O)CN(CCN(CC(=O)O)CC(=O)NCCOCCOCCNC(=O)NCCOCCOCCOCCOc3ccc(-c4nc(NC(=N)N)nc5ccc(Cl)cc45)cc3)CC(=O)O)cc2)c2cc(Cl)ccc2n1 [compound 35]")
"57%"
>>> measured_value("N[C@@H]1CCCN([C@H]2Cc3c(Cl)cc(Cl)cc3[C@@H]2Oc2ccc(S(=O)(=O)NCCOCCOCCNC(=O)NCCCCNC(=O)NCCOCCOCCNS(=O)(=O)c3ccc(O[C@H]4c5cc(Cl)cc(Cl)c5C[C@@H]4N4CCC[C@@H](N)C4)cc3)cc2)C1 [compound 135]")
"85%"

INPUT: Which Urine P % of control is listed for CN1Cc2c(Cl)cc(Cl)cc2[C@H](c2cccc(S(=O)(=O)NCCOCCOCCNC(=O)COCC(=O)NCCOCCOCCNS(=O)(=O)c3ccc(O[C@H]4c5ccccc5C[C@@H]4N4CCCCC4)cc3)c2)C1 [compound 97] ?
OUTPUT: 78%

INPUT: Which Urine P % of control is listed for N=C(N)Nc1nc(-c2cccc(S(=O)(=O)NCCOCCOCCN)c2)c2cc(Cl)ccc2n1 [compound 7] ?
OUTPUT: 90%

INPUT: Which Urine P % of control is listed for CN1Cc2c(Cl)cc(Cl)cc2[C@H](c2cccc(S(=O)(=O)NCCOCCOCCNC(=O)CN(CCN(CC(=O)O)CC(=O)NCCOCCOCCNS(=O)(=O)c3cccc([C@@H]4CN(C)Cc5c(Cl)cc(Cl)cc54)c3)CC(=O)O)c2)C1 [compound 81] ?
OUTPUT: 42%

INPUT: Which Urine P % of control is listed for C/C(=C\c1cc(F)c(Oc2ccc(S(=O)(=O)NCCOCCOCCOCCNCc3ccc(CNCCOCCOCCOCCNS(=O)(=O)c4ccc(Oc5c(F)cc(/C=C(\C)C(=O)N=C(N)N)cc5F)cc4)cc3)cc2)c(F)c1)C(=O)N=C(N)N [compound 13] ?
OUTPUT: 56%

INPUT: Which Urine P % of control is listed for CN1Cc2c(Cl)cc(Cl)cc2[C@H](c2cccc(S(=O)(=O)NCCOCCOCCOCCNC(=O)CC(O)(CC(=O)NCCOCCOCCOCCNS(=O)(=O)c3cccc([C@@H]4CN(C)Cc5c(Cl)cc(Cl)cc54)c3)C(=O)NCCOCCOCCOCCNS(=O)(=O)c3cccc([C@@H]4CN(C)Cc5c(Cl)cc(Cl)cc54)c3)c2)C1 [compound 61] ?
OUTPUT: 67%

====

System: absorption of sodium from the intestinal lumen
Assay Details: Inhibition of intestinal sodium absorption: urinary sodium (uNa) 16 h after single oral dose in rats
Assay type: in vivo, rat
Conditions Used: oral gavage, dose 10 mg/kg, 16 h post-dose
A collection of molecules and their measured Urine Na % of control
Remember to quote the unit after the number.

>>> measured_value("N=C(N)Nc1nc(-c2ccc(OCCOCCOCCOCCNC(=O)NCCOCCOCCNC(=O)NCCCCNC(=O)NCCOCCOCCNC(=O)NCCOCCOCCOCCOc3ccc(-c4nc(NC(=N)N)nc5ccc(Cl)cc45)cc3)cc2)c2cc(Cl)ccc2n1 [compound 36]")
"85%"
>>> measured_value("O=C(NCCCCNC(=O)NCCOCCOCCNS(=O)(=O)c1ccc(O[C@H]2c3cc(Cl)cc(F)c3C[C@@H]2N2CC[C@@H](O)C2)cc1)NCCOCCOCCNS(=O)(=O)c1ccc(O[C@H]2c3cc(Cl)cc(F)c3C[C@@H]2N2CC[C@@H](O)C2)cc1 [compound 165]")
"104%"
>>> measured_value("CN(C)[C@H]1Cc2c(Cl)cc(Cl)cc2[C@@H]1Oc1ccc(S(=O)(=O)NCCOCCOCCNC(=O)CCC(C)(N)CCC(=O)NCCOCCOCCNS(=O)(=O)c2ccc(O[C@H]3c4cc(Cl)cc(Cl)c4C[C@@H]3N(C)C)cc2)cc1 [compound 174]")
"49%"

Now for the molecule whose Urine Na % of control we want.
INPUT: Which Urine Na % of control is listed for N=C(N)Nc1nc(-c2cccc(OCCOCCOCCOCCNC(=O)NCCOCCOCCNC(=O)CN(CCN(CC(=O)O)CC(=O)NCCOCCOCCNC(=O)NCCOCCOCCOCCOc3cccc(-c4nc(NC(=N)N)nc5ccc(Cl)cc45)c3)CC(=O)O)c2)c2cc(Cl)ccc2n1 [compound 44] ?
OUTPUT: 88%

====

Assayed System: Rat NHE3 (Rattus norvegicus, UniProt P26433)
Construct: expressed in transfected cells; host or cells: Opossum kidney (OK) cells (ATCC), electroporation
Sequence (P26433 29-831): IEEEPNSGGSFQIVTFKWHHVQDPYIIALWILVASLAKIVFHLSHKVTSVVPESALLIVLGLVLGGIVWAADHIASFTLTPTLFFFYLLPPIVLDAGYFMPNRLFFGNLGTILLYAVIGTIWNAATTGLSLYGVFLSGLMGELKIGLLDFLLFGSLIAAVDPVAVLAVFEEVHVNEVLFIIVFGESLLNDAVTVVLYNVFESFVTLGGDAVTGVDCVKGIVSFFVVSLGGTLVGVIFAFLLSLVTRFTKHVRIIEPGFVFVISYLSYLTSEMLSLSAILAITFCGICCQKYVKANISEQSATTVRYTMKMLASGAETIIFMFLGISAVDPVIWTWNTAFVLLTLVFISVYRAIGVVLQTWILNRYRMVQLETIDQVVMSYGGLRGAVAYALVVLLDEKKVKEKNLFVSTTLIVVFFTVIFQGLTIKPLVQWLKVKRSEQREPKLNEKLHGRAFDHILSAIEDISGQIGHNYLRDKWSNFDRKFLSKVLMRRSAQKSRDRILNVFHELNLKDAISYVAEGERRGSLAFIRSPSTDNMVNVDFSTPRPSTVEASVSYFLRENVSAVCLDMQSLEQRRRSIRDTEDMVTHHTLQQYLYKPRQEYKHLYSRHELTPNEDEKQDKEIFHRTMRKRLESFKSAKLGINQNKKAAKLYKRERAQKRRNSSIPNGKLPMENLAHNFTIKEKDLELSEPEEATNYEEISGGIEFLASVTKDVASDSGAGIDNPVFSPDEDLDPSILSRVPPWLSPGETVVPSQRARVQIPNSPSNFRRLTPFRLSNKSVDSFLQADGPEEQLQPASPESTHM
Assay Details: Cell-based NHE3 activity under prompt conditions (OK cells, BCECF pH recovery), rat NHE3
Conditions Used: prompt conditions
Measured Property: Prompt Rat NHE3 pIC50
Enter a number only.

Example entries begin here.
>>> measured_value("CN(CC(=O)NCCOCCOCCNC(=O)NCCOCCOCCOCCOc1ccc(-c2nc(NC(=N)N)nc3ccc(Cl)cc23)cc1)CC(=O)NCCOCCOCCNC(=O)NCCOCCOCCOCCOc1ccc(-c2nc(NC(=N)N)nc3ccc(Cl)cc23)cc1")
7.90
>>> measured_value("CN1Cc2c(Cl)cc(Cl)cc2[C@H](c2cccc(S(=O)(=O)NCCOCCOCCOCCNC(=O)COCC(=O)NCCOCCOCCOc3cccc(-c4nc(NC(=N)N)nc5ccc(Cl)cc45)c3)c2)C1")
6.85
>>> measured_value("CN1Cc2c(Cl)cc(Cl)cc2[C@H](c2cccc(S(=O)(=O)NCCOCCOCCNC(=O)NCCCN(CCCNC(=O)NCCOCCOCCNS(=O)(=O)c3cccc([C@@H]4CN(C)Cc5c(Cl)cc(Cl)cc54)c3)CCCNC(=O)NCCOCCOCCNS(=O)(=O)c3cccc([C@@H]4CN(C)Cc5c(Cl)cc(Cl)cc54)c3)c2)C1")
6.25

INPUT: Which Prompt Rat NHE3 pIC50 is listed for C/C(=C\c1cc(F)c(Oc2ccc(S(=O)(=O)NCCOCCOCCOCCNC(=O)N3CCN(C(=O)NCCOCCOCCOCCNS(=O)(=O)c4ccc(Oc5c(F)cc(/C=C(\C)C(=O)N=C(N)N)cc5F)cc4)CC3)cc2)c(F)c1)C(=O)N=C(N)N ?
OUTPUT: 7.70

INPUT: Which Prompt Rat NHE3 pIC50 is listed for CN(CC(=O)O)CC(=O)NC(CCC(=O)NCCOCCOCCNS(=O)(=O)c1cccc([C@@H]2CN(C)Cc3c(Cl)cc(Cl)cc32)c1)(CCC(=O)NCCOCCOCCNS(=O)(=O)c1cccc([C@@H]2CN(C)Cc3c(Cl)cc(Cl)cc32)c1)CCC(=O)NCCOCCOCCNS(=O)(=O)c1cccc([C@@H]2CN(C)Cc3c(Cl)cc(Cl)cc32)c1 ?
OUTPUT: 7.30

INPUT: Which Prompt Rat NHE3 pIC50 is listed for C/C(=C\c1cc(F)c(Oc2ccc(S(=O)(=O)NCCOCCOCCOCCNC(=O)NCCOCCOCCNC(=O)NCCOCCOCCOCCNS(=O)(=O)c3ccc(Oc4c(F)cc(/C=C(\C)C(=O)N=C(N)N)cc4F)cc3)cc2)c(F)c1)C(=O)N=C(N)N ?
OUTPUT: 7.00

INPUT: Which Prompt Rat NHE3 pIC50 is listed for O=C(NCCOCCOCCOCCNS(=O)(=O)c1ccc(O[C@H]2c3ccccc3C[C@@H]2N2CCCCC2)cc1)c1ccc(C(=O)NCCOCCOCCOCCNS(=O)(=O)c2ccc(O[C@H]3c4ccccc4C[C@@H]3N3CCCCC3)cc2)cc1 ?
OUTPUT: 7.50

INPUT: Which Prompt Rat NHE3 pIC50 is listed for CN1Cc2c(Cl)cc(Cl)cc2[C@H](c2cccc(S(=O)(=O)NCCOCCOCCNC(=O)CCC(CCC(=O)NCCOCCOCCNS(=O)(=O)c3cccc([C@@H]4CN(C)Cc5c(Cl)cc(Cl)cc54)c3)(CCC(=O)NCCOCCOCCNS(=O)(=O)c3cccc([C@@H]4CN(C)Cc5c(Cl)cc(Cl)cc54)c3)NC(=O)NC(CO)CO)c2)C1 ?
OUTPUT: 7.10

INPUT: Which Prompt Rat NHE3 pIC50 is listed for CNC(=O)NC(CCC(=O)NCCOCCOCCNS(=O)(=O)c1cccc([C@@H]2CN(C)Cc3c(Cl)cc(Cl)cc32)c1)(CCC(=O)NCCOCCOCCNS(=O)(=O)c1cccc([C@@H]2CN(C)Cc3c(Cl)cc(Cl)cc32)c1)CCC(=O)NCCOCCOCCNS(=O)(=O)c1cccc([C@@H]2CN(C)Cc3c(Cl)cc(Cl)cc32)c1 ?
OUTPUT: 6.10

INPUT: Which Prompt Rat NHE3 pIC50 is listed for CN(C)[C@H]1Cc2c(Cl)cc(Cl)cc2[C@@H]1Oc1ccc(S(=O)(=O)NCCOCCOCCNC(=O)CCC(C)(CCC(=O)NCCOCCOCCNS(=O)(=O)c2ccc(O[C@H]3c4cc(Cl)cc(Cl)c4C[C@@H]3N(C)C)cc2)NC(=O)CCC(=O)O)cc1 ?
OUTPUT: 8.00

INPUT: Which Prompt Rat NHE3 pIC50 is listed for C/C(=C\c1cc(F)c(Oc2ccc(S(=O)(=O)NCCOCCOCCOCCN)cc2)c(F)c1)C(=O)N=C(N)N ?
OUTPUT: 6.90

INPUT: Which Prompt Rat NHE3 pIC50 is listed for CN1Cc2c(Cl)cc(Cl)cc2[C@H](c2cccc(S(=O)(=O)NCCOCCOCCNC(=O)NCCCC(N)(CCCNC(=O)NCCOCCOCCNS(=O)(=O)c3cccc([C@@H]4CN(C)Cc5c(Cl)cc(Cl)cc54)c3)CCCNC(=O)NCCOCCOCCNS(=O)(=O)c3cccc([C@@H]4CN(C)Cc5c(Cl)cc(Cl)cc54)c3)c2)C1 ?
OUTPUT: 7.00

INPUT: Which Prompt Rat NHE3 pIC50 is listed for CN1Cc2c(Cl)cc(Cl)cc2[C@H](c2cccc(S(=O)(=O)NCCOCCOCCOCCNC(=O)CN3CCN(c4nc(N5CCN(CC(=O)NCCOCCOCCOCCNS(=O)(=O)c6cccc([C@@H]7CN(C)Cc8c(Cl)cc(Cl)cc87)c6)CC5)nc(N5CCN(CC(=O)NCCOCCOCCOCCNS(=O)(=O)c6cccc([C@@H]7CN(C)Cc8c(Cl)cc(Cl)cc87)c6)CC5)n4)CC3)c2)C1 ?
OUTPUT: 6.60
